B1: CPEB3 Ribozyme (parent)
chain: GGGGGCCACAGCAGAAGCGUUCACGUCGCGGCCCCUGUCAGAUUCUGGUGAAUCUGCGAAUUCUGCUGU

Variants of: B1
protocolDetails: self-cleavage, relative activity (ratio to wild type); higher = more cleavage; co-transcriptional
readoutLabel: self-cleavage
# answer = number (no unit)

Study these solved cases before continuing.
| variantNotation | self-cleavage |
| --- | --- |
| A52G U53A | 0.917 |
| C35G G47C | 0.634 |
| G4C G48C | 0.675 |
| C6G A40C | 0.128 |
| C32U G50A | 0.995 |

Lookup: Consider the variant A16C C22G . State its measured self-cleavage.
Found: 0.0967

Lookup: Consider the variant U20C C35A . State its measured self-cleavage.
Found: 0.169

Lookup: Consider the variant C7A G50U . State its measured self-cleavage.
Found: 0.54

Lookup: Consider the variant G11A G48C . State its measured self-cleavage.
Found: 0.951

Lookup: Consider the variant C24A G41C . State its measured self-cleavage.
Found: 0.299

Lookup: Consider the variant C6G C35U . State its measured self-cleavage.
Found: 0.15

Lookup: Consider the variant A16G G50U . State its measured self-cleavage.
Found: 0.994

Lookup: Consider the variant G3A C12G . State its measured self-cleavage.
Found: 0.326

Lookup: Consider the variant C22U U61C . State its measured self-cleavage.
Found: 0.134

Lookup: Consider the variant G11U A23G . State its measured self-cleavage.
Found: 0.651
